target: Proteasome Macropain subunit (Homo sapiens) (UniProt P49721); assay: Inhibition of 26S proteasome beta 2 in human HEK293 cell lysate assessed as residual activity at 0.167 uM after 1 hr; assay type: cell-free
Sequence (P49721 whole entry): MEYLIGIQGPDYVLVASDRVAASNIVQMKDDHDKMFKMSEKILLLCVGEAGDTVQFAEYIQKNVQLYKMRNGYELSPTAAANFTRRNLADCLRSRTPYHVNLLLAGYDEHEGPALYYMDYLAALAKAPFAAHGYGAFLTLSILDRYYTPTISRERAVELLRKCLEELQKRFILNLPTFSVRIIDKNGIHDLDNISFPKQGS
In this section, each of the compounds is paired with its reported Activity.
Numbers only; they are read as %.

Input line: Missing value: Activity, Proteasome Macropain subunit (Homo sapiens) (UniProt P49721), entry `CC(C)C[C@H](NC(=O)[C@H](Cc1ccccc1)NC(=O)[C@H](Cc1ccccc1)NC(=O)[C@H](Cc1ccccc1)N=[N+]=[N-])C(=O)[C@@]1(C)CO1` . Fill in?
Output line: 89

Input line: Give Activity (Proteasome Macropain subunit (Homo sapiens) (UniProt P49721)) of the following compound: `CC(C)C[C@H](NC(=O)[C@H](Cc1ccccc1)NC(=O)[C@H](Cc1c(F)c(F)c(F)c(F)c1F)NC(=O)[C@H](Cc1ccccc1)N=[N+]=[N-])C(=O)[C@@]1(C)CO1`
Output line: 89.9

Input line: Form entry - test system: Proteasome Macropain subunit (Homo sapiens) (UniProt P49721); read-out: Activity; compound: `CC(C)C[C@H](NC(=O)[C@H](Cc1cc(C(F)(F)F)cc(C(F)(F)F)c1)NC(=O)[C@H](Cc1ccccc1)NC(=O)[C@H](Cc1ccccc1)N=[N+]=[N-])C(=O)[C@@]1(C)CO1`
Output line: 112

Input line: Can you look up Activity on Proteasome Macropain subunit (Homo sapiens) (UniProt P49721) for CC(C)C[C@H](NC(=O)[C@H](Cc1cc(C(F)(F)F)cc(C(F)(F)F)c1)NC(=O)c1cnccn1)B1OC2C[C@@H]3C[C@@H](C3(C)C)[C@]2(C)O1 (some centres undefined) ?
Output line: 94.3

###

# Activity annotations
target: Proteasome Macropain subunit (Homo sapiens) (UniProt P49721); experiment: Inhibition of 26S proteasome beta 2 in human HEK293 cell lysate assessed as residual activity at 0.5 uM after 1 hr; format: cell-free
Give a bare numeral; the unit % is implied.

Study these solved cases before continuing.
1) CC(C)C[C@H](NC(=O)[C@H](Cc1cc(C(F)(F)F)cc(C(F)(F)F)c1)NC(=O)c1cnccn1)B1OC2C[C@@H]3C[C@@H](C3(C)C)[C@]2(C)O1 (some centres not stated)    103
2) CC(C)C[C@H](NC(=O)[C@H](Cc1cc(C(F)(F)F)cc(C(F)(F)F)c1)NC(=O)[C@H](Cc1ccccc1)NC(=O)[C@H](Cc1ccccc1)N=[N+]=[N-])C(=O)[C@@]1(C)CO1    99.1
3) CC(C)C[C@H](NC(=O)[C@H](Cc1c(F)c(F)c(F)c(F)c1F)NC(=O)[C@H](Cc1ccccc1)NC(=O)[C@H](Cc1ccccc1)N=[N+]=[N-])C(=O)[C@@]1(C)CO1    95.6
4) CC(C)C[C@H](NC(=O)[C@H](Cc1ccccc1)NC(=O)[C@H](Cc1ccccc1)NC(=O)[C@H](Cc1ccccc1)N=[N+]=[N-])C(=O)[C@@]1(C)CO1    65.8

Input line: Hello, I am looking for reported Activity with Proteasome Macropain subunit (Homo sapiens) (UniProt P49721) for CC(C)C[C@H](NC(=O)[C@H](Cc1c(F)c(F)c(F)c(F)c1F)NC(=O)c1cnccn1)B1OC2C[C@@H]3C[C@@H](C3(C)C)[C@]2(C)O1 (some centres not stated) . Could you help?
Output line: 118

Input line: For Proteasome Macropain subunit (Homo sapiens) (UniProt P49721), provide Activity of `CC(C)C[C@H](NC(=O)[C@H](Cc1ccccc1)NC(=O)[C@H](Cc1c(F)c(F)c(F)c(F)c1F)NC(=O)[C@H](Cc1ccccc1)N=[N+]=[N-])C(=O)[C@@]1(C)CO1` please.
Output line: 118

Input line: So what Activity did `CC(C)C[C@H](NC(=O)[C@H](Cc1ccccc1)NC(=O)[C@H](Cc1cc(C(F)(F)F)cc(C(F)(F)F)c1)NC(=O)[C@H](Cc1ccccc1)N=[N+]=[N-])C(=O)[C@@]1(C)CO1` get with Proteasome Macropain subunit (Homo sapiens) (UniProt P49721)?
Output line: 110

###

We begin with a simple list: items and their reported Activity.
target: Proteasome component C5 (Homo sapiens) (UniProt P20618); test: Inhibition of 26S proteasome beta 1 in human HEK293 cell lysate assessed as residual activity at […] after 1 hr; type: cell-free
Field: numeric (%). Do not append units.

Reference set, count: 2
1. CC(C)C[C@H](NC(=O)[C@H](Cc1cc(C(F)(F)F)cc(C(F)(F)F)c1)NC(=O)c1cnccn1)B1OC2C[C@@H]3C[C@@H](C3(C)C)[C@]2(C)O1 (stereo partly drawn)    1.1
2. CC(C)C[C@H](NC(=O)[C@H](Cc1c(F)c(F)c(F)c(F)c1F)NC(=O)[C@H](Cc1ccccc1)NC(=O)[C@H](Cc1ccccc1)N=[N+]=[N-])C(=O)[C@@]1(C)CO1    77.6

Now consider the entry below.
Input line: Param item = `CC1=CC(C)=[N+]2C1=C(CCCCc1cn([C@@H](Cc3ccccc3)C(=O)N[C@@H](Cc3ccccc3)C(=O)N[C@@H](Cc3c(F)c(F)c(F)c(F)c3F)C(=O)N[C@@H](CC(C)C)C(=O)[C@@]3(C)CO3)nn1)c1c(C)cc(C)n1[B-]2(F)F` ; retrieve measured Activity.
Output line: 98.4

###

biological target: Proteasome Macropain subunit (Homo sapiens); assay: Inhibition of 26S proteasome beta 2 in human HEK293 cell lysate assessed as residual activity at 0.006 uM after 1 hr; format: cell-free
Readout: Activity (%)
Give just the numeric value; % need not be written.

Worked set:
1) CC(C)C[C@H](NC(=O)[C@H](Cc1cc(C(F)(F)F)cc(C(F)(F)F)c1)NC(=O)c1cnccn1)B1OC2C[C@@H]3C[C@@H](C3(C)C)[C@]2(C)O1 (stereo partly specified)    109
2) CC(C)C[C@H](NC(=O)[C@H](Cc1cc(C(F)(F)F)cc(C(F)(F)F)c1)NC(=O)[C@H](Cc1ccccc1)NC(=O)[C@H](Cc1ccccc1)N=[N+]=[N-])C(=O)[C@@]1(C)CO1    105

Input line: Need Activity of `CC(C)C[C@H](NC(=O)[C@H](Cc1c(F)c(F)c(F)c(F)c1F)NC(=O)[C@H](Cc1ccccc1)NC(=O)[C@H](Cc1ccccc1)N=[N+]=[N-])C(=O)[C@@]1(C)CO1` , thanks.
Output line: 90.7

Input line: Look up Activity: `CC(C)C[C@H](NC(=O)[C@H](Cc1ccccc1)NC(=O)[C@H](Cc1ccccc1)NC(=O)[C@H](Cc1ccccc1)N=[N+]=[N-])C(=O)[C@@]1(C)CO1`
Output line: 105

Input line: Reported Activity, compound CC(C)C[C@H](NC(=O)[C@H](Cc1c(F)c(F)c(F)c(F)c1F)NC(=O)c1cnccn1)B1OC2C[C@@H]3C[C@@H](C3(C)C)[C@]2(C)O1 (stereo partly specified) : ____
Output line: 104

Input line: Fill in: Activity of `CC(C)C[C@H](NC(=O)[C@H](Cc1ccccc1)NC(=O)[C@H](Cc1cc(C(F)(F)F)cc(C(F)(F)F)c1)NC(=O)[C@H](Cc1ccccc1)N=[N+]=[N-])C(=O)[C@@]1(C)CO1` is ___
Output line: 100

###

Measured Activity, listed per entry for reference.
Biological target: Proteasome component C5 (Homo sapiens) (UniProt P20618)
Sequence (whole entry): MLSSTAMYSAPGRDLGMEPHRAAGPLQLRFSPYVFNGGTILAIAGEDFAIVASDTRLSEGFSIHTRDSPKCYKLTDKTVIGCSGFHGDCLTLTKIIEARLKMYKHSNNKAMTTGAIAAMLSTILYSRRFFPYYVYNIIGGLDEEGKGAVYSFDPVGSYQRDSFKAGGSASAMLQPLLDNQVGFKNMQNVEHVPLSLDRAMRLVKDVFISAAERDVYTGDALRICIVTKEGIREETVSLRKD
Test: Displacement of fluorescent labeled MV151 from 26S proteasome beta 1 in human HEK293 cell lysate assessed as residual activity at 1 uM after 1 hr by SDS-PAGE
Assay type: cell-free

# annotated cases, reported Activity shown
1) CC(C)C[C@H](NC(=O)[C@H](Cc1ccccc1)NC(=O)[C@H](Cc1cc(C(F)(F)F)cc(C(F)(F)F)c1)NC(=O)[C@H](Cc1ccccc1)N=[N+]=[N-])C(=O)[C@@]1(C)CO1    167%
2) CC(C)C[C@H](NC(=O)[C@H](Cc1ccccc1)NC(=O)[C@H](Cc1c(F)c(F)c(F)c(F)c1F)NC(=O)[C@H](Cc1ccccc1)N=[N+]=[N-])C(=O)[C@@]1(C)CO1    82.1%
3) CC(C)C[C@H](NC(=O)[C@H](Cc1cc(C(F)(F)F)cc(C(F)(F)F)c1)NC(=O)[C@H](Cc1ccccc1)NC(=O)[C@H](Cc1ccccc1)N=[N+]=[N-])C(=O)[C@@]1(C)CO1    156%
4) CC(C)C[C@H](NC(=O)[C@H](Cc1c(F)c(F)c(F)c(F)c1F)NC(=O)[C@H](Cc1c(F)c(F)c(F)c(F)c1F)NC(=O)[C@H](Cc1ccccc1)N=[N+]=[N-])C(=O)[C@@]1(C)CO1    148%
5) CC(C)C[C@H](NC(=O)[C@H](Cc1ccccc1)NC(=O)[C@H](Cc1ccccc1)NC(=O)[C@H](Cc1ccccc1)N=[N+]=[N-])C(=O)[C@@]1(C)CO1    139%

Input line: Requested field: Activity. Item: `CC(C)C[C@H](NC(=O)[C@H](Cc1c(F)c(F)c(F)c(F)c1F)NC(=O)[C@H](Cc1ccccc1)NC(=O)[C@H](Cc1ccccc1)N=[N+]=[N-])C(=O)[C@@]1(C)CO1`
Output line: 248%

Input line: Need Activity, item `CC(C)C[C@H](NC(=O)[C@H](Cc1cc(C(F)(F)F)cc(C(F)(F)F)c1)NC(=O)[C@H](Cc1cc(C(F)(F)F)cc(C(F)(F)F)c1)NC(=O)[C@H](Cc1ccccc1)N=[N+]=[N-])C(=O)[C@@]1(C)CO1`
Output line: 192%
